assay: in vitro; settings: PAMPA, pH 7.4
Rule: Fulfilled for Papp at 5 h, 50 µM not less than 90 ×10⁻⁶ cm/s, Not fulfilled for anything less.

Query block: Is it the case that NC[C@H]1CC[C@H](Nc2nc(NCc3ccc(-c4ccccn4)cc3)n3ncc(Br)c3n2)CC1 [Compound 2636] has Papp at 5 h, 50 µM reaching or exceeding 90 ×10⁻⁶ cm/s?
Result block: Not fulfilled

Query block: Does Papp at 5 h, 50 µM meet or surpass 90 ×10⁻⁶ cm/s for CC[C@@]1(O)C(=O)OCc2c1cc1n(c2=O)Cc2c-1nc1cc(F)c(C)c3c1c2[C@@H](N)CC3 [Exatecan, reference compound] ?
Result block: Not fulfilled

Query block: Assess whether reported Papp at 5 h, 50 µM for N[C@H]1CCCC[C@@H]1Nc1nc(NCc2ccc(-c3ccccn3)cc2)n2ncc(Br)c2n1 [Compound 2671] sits at 90 ×10⁻⁶ cm/s or higher.
Result block: Fulfilled

Query block: Does N[C@H]1CCC[C@@H]1Nc1nc(NCc2ccc(-c3ccccn3)cc2)n2ncc(Br)c2n1 [Compound 2668] have a reported Papp at 5 h, 50 µM of at least 90 ×10⁻⁶ cm/s?
Result block: Fulfilled

Query block: Does NCC1CCN(c2nc(NCc3ccc(-c4ccccn4)cc3)n3ncc(Br)c3n2)CC1 [Compound 2560] have a reported Papp at 5 h, 50 µM of at least 90 ×10⁻⁶ cm/s?
Result block: Fulfilled

Query block: Given the entry N[C@H]1CCN(c2nc(NCc3ccc(-c4ccccn4)cc3)n3ncc(Br)c3n2)C1 [Compound 2655] , answer whether its Papp at 5 h, 50 µM meets or surpasses 90 ×10⁻⁶ cm/s.
Result block: Fulfilled

Query block: Quick check, Papp at 5 h, 50 µM >= 90 ×10⁻⁶ cm/s? N[C@H]1CCC[C@@H](Nc2nc(NCc3ccc(-c4ccccn4)cc3)n3ncc(Br)c3n2)C1 [Compound 2670]
Result block: Fulfilled

Query block: Item N[C@H]1CC[C@H](Nc2nc(NCc3ccc(-c4ccccn4)cc3)n3ncc(Br)c3n2)CC1 [Compound 2384] with Papp at 5 h, 50 µM of 90 ×10⁻⁶ cm/s or above?
Result block: Not fulfilled

Query block: Entry Brc1cnn2c(NCc3ccc(-c4ccccn4)cc3)nc(NC[C@@H]3CCCN3)nc12 [Compound 2571] : is its Papp at 5 h, 50 µM no less than 90 ×10⁻⁶ cm/s?
Result block: Fulfilled

Query block: For this compound, is measured Papp at 5 h, 50 µM 90 ×10⁻⁶ cm/s or higher? CNCCN(C)c1nc(NCc2ccc(-c3ccccn3)cc2)n2ncc(Br)c2n1 [Compound 2605]
Result block: Fulfilled

Query block: Does the reported Papp at 5 h, 50 µM for NCCCCNc1nc(NCc2ccc(-c3ccccn3)cc2)n2ncc(Br)c2n1 [Compound 2585] fall at or above the 90 ×10⁻⁶ cm/s mark?
Result block: Not fulfilled
